# assay: in vivo
# assay.conditions: Sprague-Dawley, rat, po, 25 mg/kg

smiles.string: Cc1cn(-c2cc(NC(=O)c3ccc4c(c3)C[C@H](N(C)c3cncnc3)C4)cc(C(F)(F)F)c2)cn1
Cmax [ng/mL]: 15400

---

# assay: in vivo
# assay.conditions: Sprague-Dawley, rat, iv, 5 mg/kg
metric.name: AUC(0-inf) (ng·h/mL)

smiles.string: Cc1cn(-c2cc(NC(=O)c3ccc4c(c3)C[C@H](N(C)c3cncnc3)C4)cc(C(F)(F)F)c2)cn1
reported.value: 16900

---

# assay: in vivo
# assay.conditions: Sprague-Dawley, rat, iv, 5 mg/kg

smiles.string: Cc1cn(-c2cc(NC(=O)c3ccc4c(c3)C[C@H](N(C)c3cncnc3)C4)cc(C(F)(F)F)c2)cn1
units.text: ng/mL
Cmax: 14700
